Please go through the items and note down their ratio to parent.
B1: H2-Kb / G6 (parent)
chain 1: AQSVTQPDARVTVSEGASLQLRCKYSYFGTPYLFWYVQYPRQGLQLLLKYYPGDPVVQGVNGFEAEFSKSNSSFHLRKASVHWSDWAVYFCAVTPGGSNAKLTFGKGTKLSVKS
chain 2: NSGVVQSPRYIIKGKGERSILKCIPISGHLSVAWYQQTQGQELKFFIQHYDKMERDKGNLPSRFSVQQFDDYHSEMNMSALELEDSAVYFCASSRQGGDNNQAPLFGEGTRLSVL
chain 3: not shown
chain 4: IQKTPQIQVYSRHPPENGKPNILNCYVTQFHPPHIEIQMLKNGKKIPKVEMSDMSFSKDWSFYILAHTEFTPTETDTYACRVKHDSMAEPKTVYWDRDM
chain 5: SIINFEKL

Variants of: B1
Assay: % of reporter cells activated (NFAT-GFP), raw; note: test concentration or dose not given here
Conditions: with G6; scale: % of reporter cells activated
Numbers only.

Please review the entries below; each comes with its answer.
ratio to parent reading for chain 5 I3R : 0.109

ratio to parent reading for chain 5 K7D : 0.202

ratio to parent reading for chain 5 F5Q : 2.04

Below is a list of variants. For each, state its recorded ratio to parent.
1. chain 5 E6Q
2. chain 5 S1K
3. chain 5 N4W

1. 0.292
2. 2.47
3. 0.148

Below is a list of variants. For each, state its recorded ratio to parent.
1. chain 5 I2C
2. chain 5 L8D
3. chain 5 I2Q
4. chain 5 L8R

1. 0.239
2. 0.152
3. 0.255
4. 0.617

Below is a list of variants. For each, state its recorded ratio to parent.
1. chain 5 I3W
2. chain 5 F5L
3. chain 5 N4R

1: 0.276; 2: 0.959; 3: 0.255

Below is a list of variants. For each, state its recorded ratio to parent.
1. chain 5 F5N
2. chain 5 L8Y
3. chain 5 F5E
4. chain 5 I2L
5. chain 5 L8N
6. chain 5 E6A
7. chain 5 I2W
8. chain 5 N4H

0.3
2.09
0.424
0.247
0.148
0.724
0.185
0.276
